src = patent US20210340238A1

This section presents molecules with their documented Kd values.
# targetOrTestSystem: Matrix-associated proTGFβ1
# assayProcedure: Octet binding, ECM average of hLTBP1 and hLTBP3 complexes
# Design: species or system human
# conditionLabel: average KD of (B) and (C), read-out: (D) ECM AVRG
propertyLabel: Kd

| molecule | resultValue |
| --- | --- |
| Ab19: monoclonal antibody binding proTGFβ1 complexes; VH SEQ ID NO: 234, VL SEQ ID NO: 15 (antibody, V domains shown) VH: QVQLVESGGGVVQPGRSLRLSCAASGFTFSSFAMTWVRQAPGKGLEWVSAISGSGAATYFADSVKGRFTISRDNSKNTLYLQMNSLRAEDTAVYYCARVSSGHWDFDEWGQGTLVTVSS VL: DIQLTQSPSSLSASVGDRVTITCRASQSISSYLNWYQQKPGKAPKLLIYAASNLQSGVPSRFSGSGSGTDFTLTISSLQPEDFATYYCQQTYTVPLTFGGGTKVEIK | 0.172 nM |
| Ab16: monoclonal antibody binding proTGFβ1 complexes; VH SEQ ID NO: 228, VL SEQ ID NO: 15 (antibody, V domains shown) VH: EVQLLESGGGLVQPGGSLRLSCAASGFTFSNYAMSWVRQAPGKGLEWVSAISGSGFTTYYADSVKGRFTISRDNSKNTLYLQMNSLRAEDTAVYYCARVSSGHWDFDYWGQGTLVTVSS VL: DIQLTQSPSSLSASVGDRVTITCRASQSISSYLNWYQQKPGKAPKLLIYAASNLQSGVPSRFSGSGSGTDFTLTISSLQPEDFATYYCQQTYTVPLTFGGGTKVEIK | 0.157 nM |
